system: UACC-257 melanoma; experiment: NCI-60 one-dose screen, 48 h; settings: 10 µM unless noted
The panel holds about 83,000 compounds, 20% with a hit somewhere; the sample as a whole holds those more often. The source made the active and inactive calls. The calls were made as follows: active = growth percent below 10; inactive = the rest.
// allowed return values: y for active, n for inactive

Consider the following illustrative entries.
{"MOLECULE": "CSc1ccc(C(=O)Nc2ccc3nn(/C(C#N)=C/c4ccccn4)nc3c2)cc1", "CAT": "y"}
{"MOLECULE": "O=c1[nH]c2ccccc2cc1CSc1cccc(Nc2nccc(-c3ccc4ccccc4c3)n2)c1", "CAT": "n"}
{"MOLECULE": "CCOc1ccc(C(=O)NC(=S)Nc2ccc(S(N)(=O)=O)cc2)cc1", "CAT": "n"}
{"MOLECULE": "Cc1ccc(NC(=O)CN2CCN(c3ncnc4c3cnn4-c3ccccc3)CC2)cc1", "CAT": "n"}
{"MOLECULE": "C/C(=N\\N=C\\c1cc([N+](=O)[O-])ccc1Cl)c1ccc2c(c1)Nc1ccccc1S2", "CAT": "n"}

In: Recorded call for CCCSc1nc(NCCc2c[nH]c3ccccc23)c(C#N)c(-c2ccc(F)cc2)n1 ?
Out: n

In: What is the recorded call for this molecule in the test? COc1cc2c(c(OC)c1OC)C(=O)CC(c1cccc(NC(=O)c3cc(N)ccc3Cl)c1)O2 (stereo not drawn)
Out: n

In: Test call, this molecule: CCS(=O)(=O)N1CCCC(C(=O)Nc2nc3ccc(NC(=O)c4ccc(F)c(OC)c4F)cc3s2)C1 (stereo not drawn)
Out: n

In: Which outcome was assigned to COc1cc2c(c(OC)c1OC)C(=O)CC(c1cccc(NC(=O)[C@@H](N)CC(C)C)c1)O2 (stereo partly drawn) in this test?
Out: n

In: Recorded test call requested for COc1cc(C2CC(c3ccc(S(=O)(=O)NCCNc4nc(Nc5ccc(F)cc5)nc(N(C)C)n4)cc3)=Nc3c(N)nc(N)nc3N2)cc(OC)c1OC (stereo not drawn)
Out: n

In: Per the assay record, what outcome was assigned to COc1cccc(COc2ccc(NC(=O)Nc3ccc(Cl)c(C(F)(F)F)c3)cc2)c1 ?
Out: n

In: State the result this test recorded for COc1c(F)ccc(C(=O)Nc2ccc3nc(NC(=O)C4CCCN(S(=O)(=O)c5ccc(Br)c(F)c5)C4)sc3c2)c1F (stereo not drawn) .
Out: n

In: Which outcome was assigned to Cc1ccc(C2CC(c3ccc(S(=O)(=O)NCCNc4nc(Nc5ccc(F)cc5)nc(N(C)C)n4)cc3)=Nc3c(N)nc(N)nc3N2)cc1 (stereo not drawn) in this test?
Out: n

In: Any idea what this test logged for N#Cc1cnn(C(=O)c2ccccc2Br)c1NC(=O)c1ccc(Br)cc1Cl ?
Out: n

* * *

system: CAKI-1 renal; assay: NCI-60 one-dose screen, 48 h; details: 10 µM unless noted
This is part of a sample that, as a whole, favours compounds with a hit. Of some 83,000 tested, about 20% had one in any assay. Calls of active or inactive are those of the source. How the source made its calls: active means growth percent below 10; inactive means the rest.
Please state which outcome applies, choosing from YES (active), NO (inactive)

{"MOLECULE": "NS(=O)(=O)c1ccc(CCNC(=O)CSc2ccc(-c3ccc(Br)cc3)nn2)cc1", "CAT": "NO"}
{"MOLECULE": "CC(=O)Nc1ccc(-n2cnc3ccc(-c4ccc(O)cc4)cc32)cc1", "CAT": "NO"}
{"MOLECULE": "O=C(COc1ccc(NC(=O)Nc2ccc(Cl)c(Cl)c2)cc1)N=Nc1c(O)[nH]c2ccc(Br)cc12", "CAT": "YES"}
{"MOLECULE": "CCCCCCn1c(O)c(N=Nc2nc(-c3cc4ccccc4oc3=O)cs2)c2ccccc21", "CAT": "NO"}
{"MOLECULE": "Brc1ccc(N/N=C/c2c[nH]c3ccc(Br)cc23)nc1", "CAT": "YES"}

In: Please share the test call associated with C=C1CCC2C3(C)COC(c4ccc(F)cc4)OC3CCC2(C)C1CC(O)C1=CCOC1=O (centres undefined) .
Out: NO

In: Per the records of this test, what outcome belongs to COc1c(F)ccc(C(=O)Nc2ccc3nc(NC(=O)C4CCCN(S(=O)(=O)C5CC5)C4)sc3c2)c1F (centres undefined) ?
Out: NO

In: State the result this test recorded for C=C1CCC2C3(C)COC(c4ccc(F)cc4)OC3CCC2(C)C1C/C=C1/C(=O)OCC1O (centres undefined) .
Out: YES

In: Called result for COc1ccc2[nH]cc(-c3nnc(N)nc3-c3c[nH]c4ncc(Br)cc34)c2c1
Out: NO
